Reported pEC50 is given for each of the following molecules.
- system: APOL1 G2 (Homo sapiens, UniProt O14791, DEL388-389)
- Sequence (O14791 with tags, fused parts or gaps DEL388-389): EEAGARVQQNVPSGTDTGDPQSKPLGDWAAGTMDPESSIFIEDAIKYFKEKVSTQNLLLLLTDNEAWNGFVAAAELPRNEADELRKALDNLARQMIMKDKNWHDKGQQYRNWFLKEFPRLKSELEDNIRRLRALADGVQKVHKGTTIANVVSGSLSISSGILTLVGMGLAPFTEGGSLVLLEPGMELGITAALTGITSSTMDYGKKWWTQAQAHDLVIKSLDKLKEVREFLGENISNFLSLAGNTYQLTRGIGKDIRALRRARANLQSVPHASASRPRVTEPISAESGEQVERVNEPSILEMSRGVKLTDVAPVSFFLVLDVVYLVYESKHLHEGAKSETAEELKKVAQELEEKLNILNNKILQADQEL
- method-notes: Rescue of HEK293 cell death caused by overexpression of APOL1 (CellTiter-Glo luminescence), HEK293/T-REx APOL1 G2/clone #2
- run-parameters: reversal of cell death caused by overexpression of APOL1; geometric mean of at least 2 assay runs, † = single assay run (technical duplicate)
Schema: pEC50 number; meaning minus log10 of the concentration expressed in molar units.

[[record]]
molecule = "CN(c1ccc(O[C@H]2C[C@H](NCCc3cccc(Cl)c3)C2)cc1)S(C)(=O)=O [Compound 48]"
assay_value = 5.60


Noted for C[C@@H]1CN(CCc2cccc(Cl)c2)C[C@H]1COc1ccc(S(C)(=O)=O)cc1 (racemic) [Compound 52] : its pEC50 reads 6.91

###

- system: APOL1 G2 (Homo sapiens, UniProt O14791, DEL388-389)
- Sequence (O14791 with tags, fused parts or gaps DEL388-389): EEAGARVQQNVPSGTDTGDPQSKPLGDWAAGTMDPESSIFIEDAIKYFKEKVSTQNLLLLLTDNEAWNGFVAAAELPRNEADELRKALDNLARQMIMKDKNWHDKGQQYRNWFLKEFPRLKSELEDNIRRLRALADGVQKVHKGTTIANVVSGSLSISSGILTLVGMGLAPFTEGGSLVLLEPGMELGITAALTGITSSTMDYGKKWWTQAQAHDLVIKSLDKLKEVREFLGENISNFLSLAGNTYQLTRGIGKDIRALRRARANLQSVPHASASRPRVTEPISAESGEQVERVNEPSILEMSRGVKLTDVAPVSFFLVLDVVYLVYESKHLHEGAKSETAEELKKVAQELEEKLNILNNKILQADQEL
- method-notes: Rescue of HEK293 cell death caused by overexpression of APOL1 (CellTiter-Glo luminescence), HEK293/T-REx APOL1 G2/clone #2
- run-parameters: reversal of cell death caused by overexpression of APOL1; geometric mean of at least 2 assay runs, † = single assay run (technical duplicate)
Reported pEC50 is given for each of the following compounds.
Schema: pEC50 number; meaning minus log10 of the concentration expressed in molar units.

[[record]]
compound = "CN(c1ccc(OC[C@@H](O)CN2CCC(c3cccc(Cl)c3)C2)cc1)S(C)(=O)=O (stereo partly drawn) [Compound 74]"
assay_value = 5.59

[[record]]
compound = "COc1ccc(Cl)cc1CCN1CCN[C@H](COc2ccc(S(C)(=O)=O)cc2)C1"
assay_value = 6.18

[[record]]
compound = "C[C@@H]1CN(CCc2cccc(Cl)c2)C[C@@H]1COc1ccc(S(C)(=O)=O)cc1 (single isomer, unassigned) [Compound 151]"
assay_value = 5.87

[[record]]
compound = "CS(=O)(=O)c1ccc(OC[C@@H]2CN(CCc3cc(Cl)cc(C#N)c3)CCN2)cc1"
assay_value = 6.04

[[record]]
compound = "C[C@@H]1CN(CCc2cc(Cl)cc(C#N)c2)C[C@H]1COc1ccc(S(C)(=O)=O)cc1"
assay_value = 6.97


Noted for `C[C@@H]1CN(CCc2cccc(C#N)c2)C[C@H]1COc1ccc(S(C)(=O)=O)cc1` : its pEC50 reads 6.57

Noted for COCCS(=O)(=O)c1ccc(OC[C@@H]2CN(CCc3cccc(Cl)c3)C[C@H]2C)cc1 (single isomer, unassigned) : its pEC50 reads 5.73
